- tested_target: recombinant human Lp-PLA2 (Homo sapiens, UniProt Q13093)
- Sequence (Q13093 22-441): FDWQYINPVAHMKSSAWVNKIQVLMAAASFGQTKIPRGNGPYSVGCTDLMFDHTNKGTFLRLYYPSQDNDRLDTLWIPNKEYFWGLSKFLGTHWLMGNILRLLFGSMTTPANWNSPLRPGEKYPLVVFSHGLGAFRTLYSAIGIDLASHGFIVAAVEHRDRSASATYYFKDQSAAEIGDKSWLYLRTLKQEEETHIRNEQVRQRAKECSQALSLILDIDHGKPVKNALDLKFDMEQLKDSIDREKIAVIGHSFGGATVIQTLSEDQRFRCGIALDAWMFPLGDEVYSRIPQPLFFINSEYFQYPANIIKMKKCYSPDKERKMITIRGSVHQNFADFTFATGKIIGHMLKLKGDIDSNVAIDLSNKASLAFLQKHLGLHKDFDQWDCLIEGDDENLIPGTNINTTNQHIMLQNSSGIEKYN
- protocol_summary: Recombinant human Lp-PLA2 assay (rhLp-PLA2, PED6 assay)
- Format: biochemical
- measurement_parameters: read-out: rhLp-PLA2 (PED6 assay) (pIC50) (converted)
value_type: log10 IC50 (log10 of the value in nM)
Give log10 of IC50, with IC50 taken in nM.

As a guide, the following entries are already answered.
Prompt: Field request: log10 IC50 | item: C[C@H]1CCn2c(cc(OCc3cc(F)c(Oc4ccc(C(F)(F)F)nc4)c(F)c3)nc2=O)N1C
Completion: -0.90

Prompt: Field request: log10 IC50 | item: C[C@@H]1CCn2c(cc(OCc3cc(F)c(Oc4ccnc(C(F)(F)F)c4)c(F)c3)nc2=O)N1C
Completion: -1.60

Prompt: Field request: log10 IC50 | item: C[C@@H]1CCn2c(cc(OCc3cc(F)c(Oc4cnc(C(F)(F)F)nc4)c(F)c3)nc2=O)N1C
Completion: -1.00

Prompt: Field request: log10 IC50 | item: CCN1c2cc(OCc3cc(F)c(F)c(F)c3)nc(=O)n2CC[C@@H]1C
Completion: -0.40

Prompt: Field request: log10 IC50 | item: C[C@@H]1CCn2c(cc(OCc3ccc(OC4CCCCC4)c(F)c3)nc2=O)N1C
Completion: 0.70

---
Prompt: Field request: log10 IC50 | item: C[C@H]1CCn2c(cc(OCc3cc(F)c(Oc4ccnc(C(F)(F)F)c4)c(F)c3)nc2=O)N1C
Completion: -1.80

Prompt: Field request: log10 IC50 | item: C[C@@H]1CCn2c(cc(OCc3ccc(OC4CCCC4)c(F)c3)nc2=O)N1C
Completion: 0.90

Prompt: Field request: log10 IC50 | item: [2H]C([2H])(Oc1cc2n(c(=O)n1)CC[C@@H](C)N2C)c1cc(F)c(F)cc1F
Completion: 1.10

Prompt: Field request: log10 IC50 | item: CC1CCn2c(cc(OCc3ccc(Oc4ccc(C(F)(F)F)cc4)c(C#N)c3)nc2=O)N1 (stereo not drawn) [E2]
Completion: -0.90
